- Study Target: Cellular tumor antigen p53 (Homo sapiens) (UniProt P04637)
- Sequence (P04637 whole entry, looked up): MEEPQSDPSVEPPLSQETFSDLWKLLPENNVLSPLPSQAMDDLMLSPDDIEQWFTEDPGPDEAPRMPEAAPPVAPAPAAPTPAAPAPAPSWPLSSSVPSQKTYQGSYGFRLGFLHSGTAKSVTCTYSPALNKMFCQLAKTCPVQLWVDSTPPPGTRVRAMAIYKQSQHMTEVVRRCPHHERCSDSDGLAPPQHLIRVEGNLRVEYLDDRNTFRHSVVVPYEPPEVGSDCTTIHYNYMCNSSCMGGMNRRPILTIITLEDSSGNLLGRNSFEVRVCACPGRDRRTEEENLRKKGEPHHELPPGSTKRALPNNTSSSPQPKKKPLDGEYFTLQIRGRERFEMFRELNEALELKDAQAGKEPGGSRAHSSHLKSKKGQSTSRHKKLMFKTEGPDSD
- Experiment Summary: nuclear p53 accumulation, HPV+ cells – imaging, p53-positive nuclei imaging, 24 h, 48 h (AID 1508601)
- Experimental Parameters: 24/48 h, hits give high values, concentration not given here
About 85 (1%) of roughly 5,700 compounds were called active. The sample as a whole holds a higher share of actives than the screen did.
Catalogue of compounds with associated p53-positive nuclei, normalised
Value expressed in %; do not type the unit.

Bench note, Cellular tumor antigen p53 (Homo sapiens) (UniProt P04637): Cn1cc(C2=C(c3cn(CCCN)c4ccccc34)C(=O)NC2=O)c2ccccc21 , p53-positive nuclei, normalised reads 0.117

Bench note, Cellular tumor antigen p53 (Homo sapiens) (UniProt P04637): Cc1nn(C)c(C)c1-c1ccnc(NCC(C)Oc2cccnc2)n1 (stereo unspecified) , p53-positive nuclei, normalised reads -0.151

Bench note, Cellular tumor antigen p53 (Homo sapiens) (UniProt P04637): CCCCCCCCCCCCCCCCCCCC(=O)NCCO , p53-positive nuclei, normalised reads -0.151

All figures here come from PubChem BioAssay AID1508601.
